Provenance of the data: the supplement of paper PMC12645437

systemName: T1, CRBN, Q96SW2;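 further: pooled lentiviral library of zinc finger degron-EGFP fusions in mCherry-positive Jurkat cells, FACS-sorted after compound exposure, with degron abundance counted by next-generation sequencing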
T1 chain: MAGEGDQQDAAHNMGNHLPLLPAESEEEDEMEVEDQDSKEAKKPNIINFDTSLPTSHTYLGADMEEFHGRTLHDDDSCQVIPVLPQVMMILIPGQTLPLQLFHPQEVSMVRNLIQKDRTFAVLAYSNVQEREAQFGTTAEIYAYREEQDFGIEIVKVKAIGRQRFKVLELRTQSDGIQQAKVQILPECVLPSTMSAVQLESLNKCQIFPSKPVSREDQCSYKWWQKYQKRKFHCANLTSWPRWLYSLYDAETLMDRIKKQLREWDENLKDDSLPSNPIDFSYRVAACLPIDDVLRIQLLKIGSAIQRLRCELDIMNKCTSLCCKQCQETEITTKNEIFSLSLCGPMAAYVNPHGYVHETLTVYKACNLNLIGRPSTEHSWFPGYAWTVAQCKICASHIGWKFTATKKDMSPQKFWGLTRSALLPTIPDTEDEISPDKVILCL
protocolText: log2 fold change of degron read counts, EGFP-low vs EGFP+ sorted cells (limma voom), compound-induced degradation; higher = more compound-induced degradation of the degron-EGFP fusion; degrons are variants of IKZF1/3 zinc finger 2; compound dose not given here
conditionParameters: Jurkat; 18 h; compound: compound 22 (5-morpholino-thalidomide)
In all, about 8,300 sequences were measured (“log2 fold change of degron read counts, EGFP-low vs EGFP+ sorted cells (limma voom), compound-induced degradation”: median about -1.1, highest 2% from about 3.2 on). What follows is part of a selection rich in the highest values, with near analogues and random picks from the rest.
log2 fold change of degron read counts values by entry
quantityName: log2 fold change of degron read counts

>>> df
                               sequencecode                            quantityname  testresult
0  FMCNQCGAIFTQKGNLLRHIKL [46F_47M_49N_50Q_52G_53A_54I_55F_67L_, Q9UKT9]  log2 fold change of degron read counts       -2.22
1  FDCNQCGATFTQKGNLLRHIKL [46F_47D_49N_50Q_52G_53A_54T_55F_67L_, Q9UKT9]  log2 fold change of degron read counts       -3.15
2  FGCEICGHGFTQKGNLLRHIKL [46F_47G_49E_50I_52G_53H_54G_55F_67L_, Q9UKT9]  log2 fold change of degron read counts       -2.62
3  FQCPICGRDFTQKGNLLRHIKL [46F_47Q_49P_50I_52G_53R_54D_55F_67L_, Q9UKT9]  log2 fold change of degron read counts       -1.68
